meta.source: patent EP4620466A1

Tested on: HeLa cells
Assay: Cell proliferation assay (XTT), cytostatic activity
Type: cell-based
Conditions: Homo sapiens, 72-h treatment, XTT cell proliferation kit
pIC50: −log10 of the molar value.
result-type: pIC50

C=C(c1cc(OC)nc(SC)c1)c1ccc2c(ccn2C)c1 :: 6.22
C=C(c1cc(OC)c(OC)c(OC)c1)c1ccc2c(ccn2C)c1 :: 8.57

A. C=C(c1cc(SC)nc(SC)c1)c1ccc2c(c1)c(C#N)cn2C
B. COc1ccc(C(C)c2ccc3c(ccn3C)c2)c(OC)c1OC (centres unmarked)
IN: For the pair A and B , which member has the lower pIC50 number? Record your answer as the label of the chosen record.
OUT: A

----------
System: HeLa cells
Experiment: Cell proliferation assay (XTT), cytostatic activity
Type: cell-based
Details: Homo sapiens, 72-h treatment, XTT cell proliferation kit
result-type: IC50

Observe how each entry below is paired with its result.
C=C(c1cc(Cl)nc(Cl)c1)c1ccc2c(c1)c(C=NO)cn2C :: > 1 µM
CSc1cc(C(=O)c2ccc3c(c2)c(C=O)cn3C)cc(SC)n1 :: > 1 µM

IN: Using the record for CN(C)c1cc(C(=O)c2ccc3c(ccn3C)c2)cc(Cl)n1 , state its measured IC50.
OUT: > 1 µM
